# testMethodNotes: Study 1 Part 1: ascending single-dose PK in healthy men
# Assay type: in vivo, human
# runParameters: male, human, plasma, oral, 100 mg, 100 mg single dose, N = 6, read-out: AUClast, Mean (SD)
assayMetric: AUC(0-t) (ng·h/mL)

1. CC(C)(NC(=O)O[C@@H]1CN2CCC1CC2)c1csc(-c2ccc(F)cc2)n1 [Compound 2]	13000

###

# testMethodNotes: Study 1 Part 1: ascending single-dose PK in healthy men
# Format: in vivo, human
# runParameters: male, human, plasma, oral, 2 mg, 2 mg single dose, N = 6, read-out: Cmax, Geometric mean (CV)
assayMetric: Cmax (ng/mL)

1. CC(C)(NC(=O)O[C@@H]1CN2CCC1CC2)c1csc(-c2ccc(F)cc2)n1	5.6
